Molecular target: T1, human Ror2 (human, UniProt Q01974 34-403, limits assumed)
T1 construct: also called hROR2; receptor tyrosine kinase-like orphan receptor 2
T1 sequence (Q01974 34-403 limits assumed): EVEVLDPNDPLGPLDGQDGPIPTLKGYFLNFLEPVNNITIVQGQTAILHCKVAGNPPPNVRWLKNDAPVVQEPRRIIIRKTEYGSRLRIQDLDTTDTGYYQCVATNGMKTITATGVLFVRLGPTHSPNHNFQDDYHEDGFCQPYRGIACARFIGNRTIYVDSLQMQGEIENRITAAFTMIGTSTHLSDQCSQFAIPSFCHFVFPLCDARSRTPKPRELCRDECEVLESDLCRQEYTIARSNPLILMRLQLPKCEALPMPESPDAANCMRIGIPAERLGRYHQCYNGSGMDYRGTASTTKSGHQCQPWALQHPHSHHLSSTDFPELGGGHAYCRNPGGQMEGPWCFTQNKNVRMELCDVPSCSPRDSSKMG
Assay: ELISA, human Ror2, pH 7.4; further: unit not given here
parameter-measured: Affinity ELISA pH 7.4
Respond numerically, and do not add a unit to the figure.

Example entries and their recorded answers appear below.
binder	Affinity ELISA pH 7.4
HC-A097S (antibody, V domains shown) VH: EVQLQQSGPELVKPGASVKISCKTSGYTFTEYTMHWMKQSHRKSLEWIGGINTNNGGTGYNQKFKGKATLTVDKSSSTAYMELRSLTSEDSAVYFCSRGSLYSYGNSYFDYWGQGTLVTVSS VL: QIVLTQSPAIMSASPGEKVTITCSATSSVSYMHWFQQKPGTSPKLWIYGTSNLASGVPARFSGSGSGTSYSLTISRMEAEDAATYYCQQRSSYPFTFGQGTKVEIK	1.69
HC-Y032D (antibody, V domains shown) VH: EVQLQQSGPELVKPGASVKISCKTSGYTFTEDTMHWMKQSHRKSLEWIGGINTNNGGTGYNQKFKGKATLTVDKSSSTAYMELRSLTSEDSAVYFCARGSLYSYGNSYFDYWGQGTLVTVSS VL: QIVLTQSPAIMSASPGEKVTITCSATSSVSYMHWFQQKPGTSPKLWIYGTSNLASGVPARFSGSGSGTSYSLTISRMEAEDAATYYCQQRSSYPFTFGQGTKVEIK	0.51
HC-G050S (antibody, V domains shown) VH: EVQLQQSGPELVKPGASVKISCKTSGYTFTEYTMHWMKQSHRKSLEWIGSINTNNGGTGYNQKFKGKATLTVDKSSSTAYMELRSLTSEDSAVYFCARGSLYSYGNSYFDYWGQGTLVTVSS VL: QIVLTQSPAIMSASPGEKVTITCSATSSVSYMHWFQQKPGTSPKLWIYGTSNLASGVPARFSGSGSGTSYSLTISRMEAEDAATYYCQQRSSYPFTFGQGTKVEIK	0.318
HC-N052C (antibody, V domains shown) VH: EVQLQQSGPELVKPGASVKISCKTSGYTFTEYTMHWMKQSHRKSLEWIGGICTNNGGTGYNQKFKGKATLTVDKSSSTAYMELRSLTSEDSAVYFCARGSLYSYGNSYFDYWGQGTLVTVSS VL: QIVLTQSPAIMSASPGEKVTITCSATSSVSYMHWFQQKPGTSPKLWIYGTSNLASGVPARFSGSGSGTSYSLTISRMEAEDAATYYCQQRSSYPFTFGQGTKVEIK	0.431

For the next question, use this binder.
Return reported Affinity ELISA pH 7.4. Input binder: HC-A097I (antibody, V domains shown) VH: EVQLQQSGPELVKPGASVKISCKTSGYTFTEYTMHWMKQSHRKSLEWIGGINTNNGGTGYNQKFKGKATLTVDKSSSTAYMELRSLTSEDSAVYFCIRGSLYSYGNSYFDYWGQGTLVTVSS VL: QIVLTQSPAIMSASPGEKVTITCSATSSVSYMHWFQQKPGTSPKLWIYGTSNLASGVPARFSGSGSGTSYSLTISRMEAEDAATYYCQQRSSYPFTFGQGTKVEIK 1.73
